Test system: UO-31 renal
testMethodNotes: NCI tumour cell line growth inhibition, 48 h; in the data active = GI50 below about 0.43 µM; inactive = the rest
Your answer must be one of the following: true = active, false = inactive

{"molecule": "C#CCNCCN1C(=O)c2ccc3c4c(ccc(c24)C1=O)C(=O)N(CCNCC#C)C3=O", "systemTested": "UO-31 renal", "categoryLabel": "false"}
{"molecule": "O1[As]2O[As]3O[As]1O[As](O2)O3", "systemTested": "UO-31 renal", "categoryLabel": "false"}
{"molecule": "CC1=C(CCC(C)NCc2ccc(OCCCN3CCCCC3)cc2)C(C)(C)CCC1 (stereo not given)", "systemTested": "UO-31 renal", "categoryLabel": "false"}
{"molecule": "Cc1ccc(-c2nc3nc(-c4ccccc4)nc(N4CCNCC4)c3o2)cc1", "systemTested": "UO-31 renal", "categoryLabel": "false"}
{"molecule": "COc1cc(/C=C/C(=O)c2ccc(F)cc2)ccc1OCCCN1CCN(CC(=O)Nc2ccc(Cl)cc2C(=O)c2ccccc2Cl)CC1", "systemTested": "UO-31 renal", "categoryLabel": "false"}
{"molecule": "CCSc1nc(SCC)c2c(-c3ccc(OC)c(OC)c3)c(C#N)c(SCC)nc2n1", "systemTested": "UO-31 renal", "categoryLabel": "false"}

Per the assay record, what outcome was assigned to `CCOC(=O)c1cc2c(n1Cc1cc(OC)c(OC)c(OC)c1)-c1oncc1CCC2` ?
true

Per the assay record, what outcome was assigned to `CN(C)C(=O)c1cnc2oc3ccc(O)cc3c2c1-c1ccccc1` ?
false

Per the assay record, what outcome was assigned to `O=C1C(SCCO)=C(SCCO)C(=O)N1c1ccc(-c2ccccc2)cc1` ?
false

Per the assay record, what outcome was assigned to `COC(=O)c1cc2ccccc2c2c3c(ccc12)OCO3` ?
false

Per the assay record, what outcome was assigned to COc1ccc(C2=CC(c3ccc(OC)cc3Br)N3C=CSC3=N2)cc1 (stereo not given) ?
false

Per the assay record, what outcome was assigned to CCOC(=O)C1CCCCN1C(=O)c1ccc(Nc2cnc3cc(C(F)(F)F)ccc3n2)cc1 (stereo not given) ?
false

###

System: COLO 205 colon
testMethodNotes: NCI tumour cell line growth inhibition, 48 h
assayMetric: TGI

Solved entries (count: 5):
{"compound": "CN(C)CC1CCC2=C(C1=O)C(c1ccc(Cl)c(Cl)c1)C1=C(CCC(CN(C)C)C1=O)O2 (centres undefined)", "TGI": "19.6 µM"}
{"compound": "O=c1cc(-c2ccccc2)[nH]c2nccn12", "TGI": "> 10 µM"}
{"compound": "Oc1c(Cl)c(Cl)c(O)c2c1CCCC2", "TGI": "3.74 µM"}
{"compound": "CCOc1ccc(N/C(=C(/C(Cl)=C(/Cl)NC(C)(C)C)[N+](=O)[O-])n2nnc3ccccc32)cc1", "TGI": "36.1 µM"}
{"compound": "COc1cccc(/C=C2\\S/C(=N/Nc3nc(-c4ccc([N+](=O)[O-])cc4)cs3)NC2=O)c1O", "TGI": "33 µM"}

Look at this compound and give its reported TGI. CC1(C)[C@@H]2C[C@H]1c1cnc(-c3ccccn3)cc1C2CCCCC[C@@H]1c2cc(-c3ccccn3)ncc2[C@@H]2C[C@H]1C2(C)C (some centres undefined)
> 32.8 µM

Look at this compound and give its reported TGI. COc1cc2c(cc1OC)[C@@H](Nc1ccc(F)cc1)C1COC(=O)[C@@H]1C2c1cc(OC)c(O)c(OC)c1 (some centres undefined)
33.3 µM

Look at this compound and give its reported TGI. `N#CSCc1ccc(Cl)c(CSC#N)c1`
11.4 µM

Look at this compound and give its reported TGI. `CN(C)c1ccc(C=C2C(=O)NC(=S)NC2=O)c2ccccc12`
> 100 µM
